Reference source: the supplement of paper PMC10126150

- Test system: ATP;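 further: ATP exposure 15 min at 22 °C before imaging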
- EXPERIMENTAL_DETAILS: switch fluorescence ratio, 500 uM ATP over buffer (Cy3 cluster intensity, sum of 5 cycles each) (fold (ratio)); higher = stronger signal-on switching upon ATP binding; sequences stand for … in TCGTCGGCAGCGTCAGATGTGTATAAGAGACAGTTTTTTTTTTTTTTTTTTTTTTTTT…TC
- RUN_CONDITIONS: aptamer strand: ATP DNA aptamer (quencher-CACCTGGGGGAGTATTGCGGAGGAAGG + anchor), 100 nM annealed; ATP concentration: 500 uM
QUANTITY_NAME: switch fluorescence ratio
Please reply with the value in numeric form only.

Query block: Which measured switch fluorescence ratio value corresponds to GCGGTAGTAC ?
Result block: 1.14

Query block: Which measured switch fluorescence ratio value corresponds to CAGCTGGTTT ?
Result block: 1

Query block: Which measured switch fluorescence ratio value corresponds to AAGACTCACG ?
Result block: 1.05

Query block: Which measured switch fluorescence ratio value corresponds to AGAAAAATTG ?
Result block: 0.979

Query block: Which measured switch fluorescence ratio value corresponds to GCGTTAGGCG ?
Result block: 1.01

Query block: Which measured switch fluorescence ratio value corresponds to TTCTTAGATG ?
Result block: 1.02

Query block: Which measured switch fluorescence ratio value corresponds to GGGGATACCT ?
Result block: 1.04

Query block: Which measured switch fluorescence ratio value corresponds to CATTTTTGGG ?
Result block: 0.988

Query block: Which measured switch fluorescence ratio value corresponds to TAGGGGGTCA ?
Result block: 1

Query block: Which measured switch fluorescence ratio value corresponds to TATTTGGGTC ?
Result block: 0.983

Query block: Which measured switch fluorescence ratio value corresponds to AACAGTATTT ?
Result block: 1.04

Query block: Which measured switch fluorescence ratio value corresponds to GTGCGGGCGC ?
Result block: 0.944

---

Provide the reported switch fluorescence ratio of each item.
- Test system: ATP;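 further: ATP exposure 15 min at 22 °C before imaging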
- EXPERIMENTAL_DETAILS: switch fluorescence ratio, 500 uM ATP over buffer (Cy3 cluster intensity, sum of 5 cycles each) (fold (ratio)); higher = stronger signal-on switching upon ATP binding; sequences stand for … in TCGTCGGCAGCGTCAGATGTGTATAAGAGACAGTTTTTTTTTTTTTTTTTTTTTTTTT…TC
- RUN_CONDITIONS: aptamer strand: ATP DNA aptamer (quencher-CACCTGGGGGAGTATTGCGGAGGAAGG + anchor), 100 nM annealed; ATP concentration: 500 uM

Query block: Which measured switch fluorescence ratio value corresponds to TGCGCCGTGG ?
Result block: 1.02

Query block: Which measured switch fluorescence ratio value corresponds to CCTTTTCAGG ?
Result block: 1.03

Query block: Which measured switch fluorescence ratio value corresponds to TTTGCCGATG ?
Result block: 0.985

Query block: Which measured switch fluorescence ratio value corresponds to TATTTTGCCT ?
Result block: 1.04

Query block: Which measured switch fluorescence ratio value corresponds to AGTCGTTCTG ?
Result block: 0.99

Query block: Which measured switch fluorescence ratio value corresponds to TTTTCCTCTT ?
Result block: 1.02

Query block: Which measured switch fluorescence ratio value corresponds to GGGGGCCATC ?
Result block: 1

Query block: Which measured switch fluorescence ratio value corresponds to CGGGTTTGTG ?
Result block: 0.973

Query block: Which measured switch fluorescence ratio value corresponds to CAGTAGTCGC ?
Result block: 1.01

Query block: Which measured switch fluorescence ratio value corresponds to GTGCTTTTGG ?
Result block: 1

Query block: Which measured switch fluorescence ratio value corresponds to AATGGCAGTC ?
Result block: 1.03

Query block: Which measured switch fluorescence ratio value corresponds to CGCTCATTTG ?
Result block: 0.97

Query block: Which measured switch fluorescence ratio value corresponds to AGTTACCGGG ?
Result block: 0.998

Query block: Which measured switch fluorescence ratio value corresponds to TAGATTCGCT ?
Result block: 0.993

Query block: Which measured switch fluorescence ratio value corresponds to CACGGGGGGA ?
Result block: 0.99

Query block: Which measured switch fluorescence ratio value corresponds to AGCTGATGTG ?
Result block: 1.01

Query block: Which measured switch fluorescence ratio value corresponds to TTTTAGATTG ?
Result block: 0.987

Query block: Which measured switch fluorescence ratio value corresponds to CGTGTAGGGA ?
Result block: 1.06

Query block: Which measured switch fluorescence ratio value corresponds to TTATTTCAAC ?
Result block: 0.973

Query block: Which measured switch fluorescence ratio value corresponds to CGTCACATAA ?
Result block: 1.22

---

- Test system: ATP;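 further: ATP exposure 15 min at 22 °C before imaging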
- EXPERIMENTAL_DETAILS: switch fluorescence ratio, 500 uM ATP over buffer (Cy3 cluster intensity, sum of 5 cycles each) (fold (ratio)); higher = stronger signal-on switching upon ATP binding; sequences stand for … in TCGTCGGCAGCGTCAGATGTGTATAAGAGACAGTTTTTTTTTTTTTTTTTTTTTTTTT…TC
- RUN_CONDITIONS: aptamer strand: ATP DNA aptamer (quencher-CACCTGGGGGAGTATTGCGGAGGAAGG + anchor), 100 nM annealed; ATP concentration: 500 uM
QUANTITY_NAME: switch fluorescence ratio
Please reply with the value in numeric form only.

Query block: Find the measured switch fluorescence ratio: item ATATTGGCAT , target or system ATP.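 Further: ATP exposure 15 min at 22 °C before imaging.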
Result block: 1.02

Query block: Find the measured switch fluorescence ratio: item GCAGTGGTAC , target or system ATP.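 Further: ATP exposure 15 min at 22 °C before imaging.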
Result block: 2.41

Query block: Find the measured switch fluorescence ratio: item GGGGTAGCGT , target or system ATP.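 Further: ATP exposure 15 min at 22 °C before imaging.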
Result block: 0.99

Query block: Find the measured switch fluorescence ratio: item TCTCATCGGG , target or system ATP.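 Further: ATP exposure 15 min at 22 °C before imaging.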
Result block: 1.01

Query block: Find the measured switch fluorescence ratio: item GCGGAAAAAC , target or system ATP.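 Further: ATP exposure 15 min at 22 °C before imaging.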
Result block: 1.02

Query block: Find the measured switch fluorescence ratio: item GGGAAACGAG , target or system ATP.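 Further: ATP exposure 15 min at 22 °C before imaging.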
Result block: 1.04

Query block: Find the measured switch fluorescence ratio: item TAATAGTTCC , target or system ATP.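 Further: ATP exposure 15 min at 22 °C before imaging.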
Result block: 1.11

Query block: Find the measured switch fluorescence ratio: item ATCTGGTGCT , target or system ATP.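 Further: ATP exposure 15 min at 22 °C before imaging.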
Result block: 1.05

Query block: Find the measured switch fluorescence ratio: item GAATGGGGAA , target or system ATP.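 Further: ATP exposure 15 min at 22 °C before imaging.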
Result block: 1.02

Query block: Find the measured switch fluorescence ratio: item CTTCCGGGGT , target or system ATP.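 Further: ATP exposure 15 min at 22 °C before imaging.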
Result block: 1.68

---

- Tested on: ATP;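 further: ATP exposure 15 min at 22 °C before imaging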
- EXPERIMENTAL_DETAILS: switch fluorescence ratio, 500 uM ATP over buffer (Cy3 cluster intensity, sum of 5 cycles each) (fold (ratio)); higher = stronger signal-on switching upon ATP binding; sequences stand for … in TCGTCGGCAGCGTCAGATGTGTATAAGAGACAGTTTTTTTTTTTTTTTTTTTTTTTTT…TC
- RUN_CONDITIONS: aptamer strand: ATP DNA aptamer (quencher-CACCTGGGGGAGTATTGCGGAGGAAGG + anchor), 100 nM annealed; ATP concentration: 500 uM
Hi, to clarify the labels: 1 covers switch fluorescence ratio from 1 upward, -1 covers anything below 1.

Query block: Quick check, switch fluorescence ratio >= 1? TTTCTGGGTG
Result block: 1

Query block: Quick check, switch fluorescence ratio >= 1? CGTGGCGCCG
Result block: -1

Query block: Quick check, switch fluorescence ratio >= 1? GGTTGCGGTG
Result block: -1

Query block: Quick check, switch fluorescence ratio >= 1? ACCGGTTACC
Result block: 1

---

Provide the reported switch fluorescence ratio of each item.
- Tested on: ATP;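 further: ATP exposure 15 min at 22 °C before imaging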
- EXPERIMENTAL_DETAILS: switch fluorescence ratio, 500 uM ATP over buffer (Cy3 cluster intensity, sum of 5 cycles each) (fold (ratio)); higher = stronger signal-on switching upon ATP binding; sequences stand for … in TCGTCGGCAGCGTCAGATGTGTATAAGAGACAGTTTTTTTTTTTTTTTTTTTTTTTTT…TC
- RUN_CONDITIONS: aptamer strand: ATP DNA aptamer (quencher-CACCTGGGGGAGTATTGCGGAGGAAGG + anchor), 100 nM annealed; ATP concentration: 500 uM
Please reply with the value in numeric form only.

Query block: Find the measured switch fluorescence ratio: item CATCGTAATT , target or system ATP.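 Further: ATP exposure 15 min at 22 °C before imaging.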
Result block: 1.07

Query block: Find the measured switch fluorescence ratio: item TGGACGTCGT , target or system ATP.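 Further: ATP exposure 15 min at 22 °C before imaging.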
Result block: 0.987

Query block: Find the measured switch fluorescence ratio: item GTTGGGGCGA , target or system ATP.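 Further: ATP exposure 15 min at 22 °C before imaging.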
Result block: 1.02

Query block: Find the measured switch fluorescence ratio: item CTATGTGTCA , target or system ATP.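 Further: ATP exposure 15 min at 22 °C before imaging.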
Result block: 0.977

Query block: Find the measured switch fluorescence ratio: item GAATTGAGAA , target or system ATP.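 Further: ATP exposure 15 min at 22 °C before imaging.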
Result block: 0.972

Query block: Find the measured switch fluorescence ratio: item ATGCCATGTG , target or system ATP.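 Further: ATP exposure 15 min at 22 °C before imaging.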
Result block: 1

Query block: Find the measured switch fluorescence ratio: item AAGGAAGGAG , target or system ATP.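 Further: ATP exposure 15 min at 22 °C before imaging.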
Result block: 1.03

Query block: Find the measured switch fluorescence ratio: item CGTTCTATCT , target or system ATP.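 Further: ATP exposure 15 min at 22 °C before imaging.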
Result block: 1

Query block: Find the measured switch fluorescence ratio: item GAAAGGCGGG , target or system ATP.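 Further: ATP exposure 15 min at 22 °C before imaging.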
Result block: 0.985

Query block: Find the measured switch fluorescence ratio: item TAAGTTTTAG , target or system ATP.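 Further: ATP exposure 15 min at 22 °C before imaging.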
Result block: 1.07

Query block: Find the measured switch fluorescence ratio: item GGGGTTCCGC , target or system ATP.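 Further: ATP exposure 15 min at 22 °C before imaging.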
Result block: 1.05

Query block: Find the measured switch fluorescence ratio: item TAGGGAGGGT , target or system ATP.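 Further: ATP exposure 15 min at 22 °C before imaging.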
Result block: 1.11

Query block: Find the measured switch fluorescence ratio: item TTTTGGCAGT , target or system ATP.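 Further: ATP exposure 15 min at 22 °C before imaging.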
Result block: 1.09

Query block: Find the measured switch fluorescence ratio: item GGGGACCTTA , target or system ATP.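 Further: ATP exposure 15 min at 22 °C before imaging.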
Result block: 0.993

Query block: Find the measured switch fluorescence ratio: item CCCGGTATTG , target or system ATP.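 Further: ATP exposure 15 min at 22 °C before imaging.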
Result block: 1.02

Query block: Find the measured switch fluorescence ratio: item CGTATTTCTT , target or system ATP.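 Further: ATP exposure 15 min at 22 °C before imaging.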
Result block: 0.989

Query block: Find the measured switch fluorescence ratio: item TATGCTTATA , target or system ATP.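 Further: ATP exposure 15 min at 22 °C before imaging.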
Result block: 0.98

Query block: Find the measured switch fluorescence ratio: item CTGAATCCGT , target or system ATP.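 Further: ATP exposure 15 min at 22 °C before imaging.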
Result block: 1.25

Query block: Find the measured switch fluorescence ratio: item GCTGAGGCTG , target or system ATP.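 Further: ATP exposure 15 min at 22 °C before imaging.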
Result block: 1

Query block: Find the measured switch fluorescence ratio: item AGTGTGTGTG , target or system ATP.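 Further: ATP exposure 15 min at 22 °C before imaging.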
Result block: 1.01
